# System: Tetranychus urticae
# Procedure summary: Tetranychus urticae (two-spotted spider mite) bean leaf disc spray test
# Format: in vivo
# Condition label: foliar, 192 h, application rate 200 ppm, sprayed bean leaf discs, mixed ages, egg, larval and adult mortality 8 days later
Please go through the items and note down their pest or weed control at 200 ppm.

Answered cases to consult:
CCN1OCC(NC(=O)c2ccc(C3=NOC(c4cc(Cl)cc(Cl)c4)(C(F)(F)F)C3)cc2C)C1=O (stereo not shown) [Compound A07] ... ≥ 80%
Cc1cc(C2=NOC(c3cc(Cl)cc(Cl)c3)(C(F)(F)F)C2)ccc1C(=O)NC1CON(C)C1=O (stereo not shown) [Compound A01] ... ≥ 80%

For every item in the list below, what is its measured pest or weed control at 200 ppm?
1. Cc1cc(C2=NOC(c3cc(Cl)cc(Cl)c3)(C(F)(F)F)C2)ccc1C(=O)NC1CON(CC(F)(F)F)C1=O (stereo not shown) [Compound A22]
2. CCN1OCC(NC(=O)c2ccc(C3=NOC(c4cc(Cl)c(Cl)c(Cl)c4)(C(F)(F)F)C3)cc2C)C1=O (stereo not shown) [Compound A02]

Result:
["≥ 80%", "≥ 80%"]
